Numbers sourced from patent US20100119506A1.

Recorded pEC50, one value per entry.
- system_name: T1, Human PAR-2 on cells (human, UniProt P55085 26-397)
- T1 construct: also called HEK-PAR-2 (#3); human PAR-2 transfected HEK293 cells
- T1 sequence: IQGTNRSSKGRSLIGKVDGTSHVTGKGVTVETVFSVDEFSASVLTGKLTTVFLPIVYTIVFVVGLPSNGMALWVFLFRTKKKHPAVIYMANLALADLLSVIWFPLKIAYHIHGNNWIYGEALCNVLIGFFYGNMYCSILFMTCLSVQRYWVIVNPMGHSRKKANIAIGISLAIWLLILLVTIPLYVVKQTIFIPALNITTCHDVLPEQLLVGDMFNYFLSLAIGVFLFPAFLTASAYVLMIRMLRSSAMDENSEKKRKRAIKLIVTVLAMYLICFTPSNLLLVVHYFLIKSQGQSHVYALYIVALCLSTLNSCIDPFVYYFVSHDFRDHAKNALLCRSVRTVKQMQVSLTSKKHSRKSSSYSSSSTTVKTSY
- protocol_text: binding of Fab to PAR-2 transfected HEK cells (HEK-PAR-2 #3)
pEC50: −log10 of the molar value.
measure: pEC50

• Ab4997 Fab (Fab, V domains shown, Fab) VH: QVELVESGGGLVQPGGSLRLSCAASGFTFSSYAMNWVRQAPGKGLEWVSAISYNGKLKGYADSVKGRFTISRDNSKNTLYLQMNSLRAEDTAVYYCARIQNDPMDVWGQGTLVTVSS VL: DIELTQPPSVSVAPGQTARISCSGDNLGKKYVQWYQQKPGQAPVLVIYDDSNRPSGIPERFSGSNSGNTATLTISGTQAEDEADYYCSSWDVGSDGWVFGGGTKLTVLG = 8.52
• Ab5003 Fab (Fab, V domains shown, Fab) VH: QVELVESGGGLVQPGGSLRLSCAASGFTFSSYAMNWVRQAPGKGLEWVSAISYKGHLTGYADSVKGRFTISRDNSKNTLYLQMNSLRAEDTAVYYCARIQNDPMDVWGQGTLVTVSS VL: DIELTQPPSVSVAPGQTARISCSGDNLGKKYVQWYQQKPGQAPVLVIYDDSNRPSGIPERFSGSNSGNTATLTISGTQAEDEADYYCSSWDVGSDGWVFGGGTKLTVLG = 8.15
• Ab5007 Fab (Fab, V domains shown, Fab) VH: QVELVESGGGLVQPGGSLRLSCAASGFTFSSYAMNWVRQAPGKGLEWVSAISFSGHLTGYADSVKGRFTISRDNSKNTLYLQMNSLRAEDTAVYYCARIQNDPMDVWGQGTLVTVSS VL: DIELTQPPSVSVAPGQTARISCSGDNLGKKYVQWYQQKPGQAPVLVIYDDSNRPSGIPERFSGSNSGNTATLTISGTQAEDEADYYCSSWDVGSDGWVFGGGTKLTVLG = 8.02
• Ab4999 Fab (Fab, V domains shown, Fab) VH: QVELVESGGGLVQPGGSLRLSCAASGFTFSSYAMNWVRQAPGKGLEWVSTISYSSSATSYADSVKGRFTISRDNSKNTLYLQMNSLRAEDTAVYYCARIQNDPMDVWGQGTLVTVSS VL: DIELTQPPSVSVAPGQTARISCSGDNLGKKYVQWYQQKPGQAPVLVIYDDSNRPSGIPERFSGSNSGNTATLTISGTQAEDEADYYCQTWDYSSIRDETNVFGGGTKLTVLG = 10.22
